Test system: azole-resistant Candida albicans ATCC 64124
assay-name: Antifungal synergism by checkerboard analysis, K-compound and azole combinations
Assay type: cell-based
condition-summary: Candida albicans, ATCC64124, K408 checkerboard table; compound alone; first of two separate experiments
observable: MIC (µg/mL)
Give the number; µg/mL is assumed, so skip it.

Prompt line: # returns recorded MIC (system: azole-resistant Candida albicans ATCC 64124) for OC(Cn1cncn1)(Cn1cncn1)c1ccc(F)cc1F
Response line: 250

Prompt line: # returns recorded MIC (system: azole-resistant Candida albicans ATCC 64124) for CCCCCCCCOC1[C@@H](N)[C@@H](O)C(O[C@@H]2C(N)CC(N)C(O[C@H]3OC(CN)[C@@H](O)[C@H](O)C3O)[C@@H]2O)O[C@@H]1CO (some centres unmarked)
Response line: 31.2

Prompt line: # returns recorded MIC (system: azole-resistant Candida albicans ATCC 64124) for C[C@@H](c1ncncc1F)[C@](O)(Cn1cncn1)c1ccc(F)cc1F
Response line: 7.81

Prompt line: # returns recorded MIC (system: azole-resistant Candida albicans ATCC 64124) for CC[C@@H]([C@H](C)O)n1ncn(-c2ccc(N3CCN(c4ccc(OC[C@@H]5CO[C@@](Cn6cncn6)(c6ccc(F)cc6F)C5)cc4)CC3)cc2)c1=O
Response line: 62.5

Prompt line: # returns recorded MIC (system: azole-resistant Candida albicans ATCC 64124) for CCC(C)n1ncn(-c2ccc(N3CCN(c4ccc(OCC5COC(Cn6cncn6)(c6ccc(Cl)cc6Cl)O5)cc4)CC3)cc2)c1=O (centres unmarked)
Response line: 250

###

Tested on: azole-resistant Candida albicans ATCC 64124
assay-name: Antifungal synergism by checkerboard analysis, K-compound and azole combinations
Format: cell-based
condition-summary: MIC of the labelled azole when combined with K408; second of two separate experiments
I'd appreciate it if you could supply MIC with K408 values for the items below.
Give the number; mg/L is assumed, so skip it.

Prompt line: Give the measured MIC with K408 of C[C@@H](c1ncncc1F)[C@](O)(Cn1cncn1)c1ccc(F)cc1F .
Response line: 0.81

Prompt line: Give the measured MIC with K408 of Clc1ccccc1C(c1ccccc1)(c1ccccc1)n1ccnc1 .
Response line: 0.49

###

I'd appreciate it if you could supply MIC with K408 values for the items below.
Test system: azole-resistant Candida albicans ATCC 64124
assay-name: Antifungal synergism by checkerboard analysis, K-compound and azole combinations
Format: cell-based
condition-summary: MIC of the labelled azole when combined with K408; second of two separate experiments

Prompt line: # returns recorded MIC with K408 (system: azole-resistant Candida albicans ATCC 64124) for OC(Cn1cncn1)(Cn1cncn1)c1ccc(F)cc1F
Response line: 15.63, 15.63 mg L^−1

Prompt line: # returns recorded MIC with K408 (system: azole-resistant Candida albicans ATCC 64124) for CCC(C)n1ncn(-c2ccc(N3CCN(c4ccc(OCC5COC(Cn6cncn6)(c6ccc(Cl)cc6Cl)O5)cc4)CC3)cc2)c1=O (stereo not drawn)
Response line: 0.98, 0.98 mg L^−1

Prompt line: # returns recorded MIC with K408 (system: azole-resistant Candida albicans ATCC 64124) for CC[C@@H]([C@H](C)O)n1ncn(-c2ccc(N3CCN(c4ccc(OC[C@@H]5CO[C@@](Cn6cncn6)(c6ccc(F)cc6F)C5)cc4)CC3)cc2)c1=O
Response line: 0.24, 0.24 mg L^−1
